These measurements were taken from ChEMBL document CHEMBL1799944.

# target: Adenosine receptor A1 (Homo sapiens) (UniProt P30542)
# Sequence (whole entry): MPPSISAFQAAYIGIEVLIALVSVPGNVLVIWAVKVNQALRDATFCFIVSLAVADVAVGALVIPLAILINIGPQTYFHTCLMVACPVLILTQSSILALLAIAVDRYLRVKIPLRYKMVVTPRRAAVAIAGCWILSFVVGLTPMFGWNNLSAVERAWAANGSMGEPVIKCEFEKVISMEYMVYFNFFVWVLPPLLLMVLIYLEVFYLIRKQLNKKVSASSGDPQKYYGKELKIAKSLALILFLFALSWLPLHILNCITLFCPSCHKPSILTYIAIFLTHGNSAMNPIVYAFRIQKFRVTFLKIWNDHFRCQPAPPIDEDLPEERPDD
# experiment.summary: Displacement of [3H]DPCPX from human adenosine A1 receptor expressed in CHO cells at =<5000 nM after 120 mins by scintillation spectrometry
# Format: cell-based
readout.kind: inhibition (%)

compound="C=CCN1C(=O)N2CC(CC)N=C2c2[nH]c(-c3cc(C)n(C)n3)nc21 (racemic)" target="Adenosine receptor A1 (Homo sapiens) (UniProt P30542)" observed_measurement=20
compound="CCC1CN2C(=O)N(Cc3ccccc3)c3nc(-c4cc(C)n(C)n4)[nH]c3C2=N1 (racemic)" target="Adenosine receptor A1 (Homo sapiens) (UniProt P30542)" observed_measurement=28
compound="C=CCN1C(=O)N2CC(C)N=C2c2[nH]c(-c3cc(OC)nn3C)nc21 (racemic)" target="Adenosine receptor A1 (Homo sapiens) (UniProt P30542)" observed_measurement=30
compound="C=CCN1C(=O)N2CC(C)N=C2c2[nH]c(-c3cc(C)n(C)n3)nc21 (racemic)" target="Adenosine receptor A1 (Homo sapiens) (UniProt P30542)" observed_measurement=13
compound="COc1cc(-c2nc3c([nH]2)C2=NC(C)CN2C(=O)N3Cc2ccccc2)on1 (racemic)" target="Adenosine receptor A1 (Homo sapiens) (UniProt P30542)" observed_measurement=35
compound="C=CCN1C(=O)N2CC(C)N=C2c2[nH]c(-c3cc(OCc4ccccc4)nn3C)nc21 (racemic)" target="Adenosine receptor A1 (Homo sapiens) (UniProt P30542)" observed_measurement=47
compound="C=CCN1C(=O)N2CC(C)N=C2c2[nH]c(-c3cc(OC)no3)nc21 (racemic)" target="Adenosine receptor A1 (Homo sapiens) (UniProt P30542)" observed_measurement=26
compound="Cc1cc(-c2nc3c([nH]2)C2=NC(C)CN2C(=O)N3Cc2ccccc2)nn1C (stereo not drawn)" target="Adenosine receptor A1 (Homo sapiens) (UniProt P30542)" observed_measurement=22
